- measurement_protocol: PhoP regulon inhibitors, Salmonella typhi PhoP promoter GFP reporter, confirmatory (AID 1850);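 also: 0% = induced wells with vehicle and 100% = uninduced wells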
- applied_conditions: fluorescence, 4 h, at 50 µM, stronger effect = higher value
The whole screen tested about 310,000 compounds, of which about 1,000 (0.32%) were called active. Not all results are given here. Potency and affinity values are given separately.
observation_type: inhibition (%)
Give bare numbers, in %.

Would you mind telling me what inhibition value was observed for N#Cc1ccccc1OCC(O)CS(=O)(=O)c1ccccc1 (stereo unspecified) ?
8.05

Item under review: "Nc1nonc1-n1nnc(C(=O)N/N=C/c2ccc(Br)cc2)c1CSC1=NCCS1" . Reported inhibition?
6.84

Name the recorded inhibition for "Cc1cc(/C=C2\C(=O)NC(=O)N(c3ccc(Cl)cc3)C2=O)c(C)n1-c1cccc(C(=O)O)c1" .
-15.1

Sample "O=C(C[n+]1cc(-c2ccc(Cl)cc2)n2c1CCCCC2)c1ccccc1" — what was its inhibition?
1.54

Endpoint output: inhibition of COc1ccc(-c2c[n+](CC(=O)OC3CC(C)CCC3C(C)C)c3n2CCC3)cc1 (stereo unspecified) . Value?
1.91

# get_value(readout='inhibition', item= CNCCC1Sc2ccccc2Oc2ccccc21 (stereo unspecified) )
10.6

So what does the record say about inhibition for "c1ccc(-c2nc(NC3CCCC3)c3ccccc3n2)cc1" ?
3.11

Can you share its inhibition? I mean this molecule: "O=C(N/N=C/c1cc2c(cc1Cl)OCO2)c1ccncc1"
-3.87

State the recorded inhibition for this entry: "O=C(N/N=C/c1ccc(O)cc1O)c1ccncc1"
1.18

Need inhibition, item CC1CCC(C(C)C)C(OC(=O)C[n+]2cc(-c3ccc(Cl)cc3)n3c2CCCCC3)C1 (stereo unspecified)
10.8

***
Which inhibition is reported for this molecule? "O=C(N/N=C/c1cc(Br)c(O)c(Br)c1O)c1cccnc1"
-12.7

----------
Task for the reader: assign each of the following compounds its reported inhibition.
- measurement_protocol: PhoP regulon inhibitors, Salmonella typhi PhoP promoter GFP reporter, confirmatory (AID 1850);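 also: 0% = induced wells with vehicle and 100% = uninduced wells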
- applied_conditions: fluorescence, 4 h, at 50 µM, stronger effect = higher value
In all, about 310,000 compounds went through this assay and about 1,000 (0.32%) were called active. A selection follows. Measured potencies and affinities stand elsewhere.
Give bare numbers, in %.

Need inhibition, item "Clc1ccc2ccc3cccnc3c2n1"
2.67

So what's the measured inhibition for this one? "O=C1CCC(=O)N1c1ccc(NC2CCN(Cc3ccccc3)CC2)c([N+](=O)[O-])c1"
-3.82

I have this compound here, "NC(=O)/C=C/C(=O)Nc1ccc(Cl)cc1" , and I need its recorded inhibition.
5

State the recorded inhibition for this entry: "Cc1ccc2c(c1)-c1ccccc1S(=O)(=O)N2"
-6.75

Find the recorded inhibition belonging to "COC(=O)C1=C(C)N(Cc2ccccc2)C(=NCc2ccccc2)N[C@H]1c1cccc(F)c1" and report it.
-0.78

# map each compound to its inhibition
1. Fc1ccc(CNCCc2c[nH]c3ccccc23)cc1
2. COC(=O)C1=C(C)N(Cc2ccccc2)C(=NCc2ccc(OC)cc2)N[C@H]1c1cccc(F)c1
3. COc1cc(CNCCCCO)ccc1OCc1ccccc1F
4. O=S1(=O)NC(=NCCc2ccccn2)c2ccccc21
5. Cc1ccc(Cl)cc1N(CC(=O)N1CCCCCC1)S(C)(=O)=O
6. CC(Nc1nc(-c2ccccc2)nc2ccccc12)c1ccccc1 (stereo unspecified)

11.8
10.3
-5.61
-5.57
-3.02
18
